Test system: P388 leukemia ip, CD2F1 mice, survival T/C
procedure summary: NCI In Vivo Anticancer Drug Screen. Data for tumor model P388 Leukemia (intraperitoneal) in CD2F1 (CDF1) mice
experimental conditions: endpoint: median survival time; dose: 50.0 mg/kg/injection; schedule: Q01DX009 (ip); vehicle: saline with Tween-80; higher = longer survival
Inconclusive results and toxic doses are left out.
measurement label: T/C

Exercise: For P388 leukemia ip, CD2F1 mice, survival T/C, provide T/C of CCC(C)(C)C(=O)Nc1cccc(OC(=O)NC)c1 please.
Key: 92 % of control

Exercise: Same question, CC(=O)Nc1ccccc1C(C)=O this time
Key: 91 % of control

Exercise: Same question, CC(C)(C)c1ccc(OCCSCCOc2ccc(C(C)(C)C)cc2)cc1 this time
Key: 90 % of control

Exercise: Same question, O=[N+]([O-])c1ccc(-c2nc(/C=N/N3CCS(=O)(=O)CC3)cs2)o1 this time
Key: 99 % of control

Exercise: Same question, O=C1c2cc(Cl)ccc2-c2c(Cl)cc(Cl)cc21 this time
Key: 100 % of control

Exercise: Same question, Cc1ccc(/C=N/NC(N)=S)s1 this time
Key: 107 % of control

Every entry's value here was drawn from PubChem BioAssay AID330.
